# Target desc: Inhibitor of nuclear factor kappa-B kinase subunit beta (Homo sapiens) (UniProt O14920)
# Sequence (whole entry): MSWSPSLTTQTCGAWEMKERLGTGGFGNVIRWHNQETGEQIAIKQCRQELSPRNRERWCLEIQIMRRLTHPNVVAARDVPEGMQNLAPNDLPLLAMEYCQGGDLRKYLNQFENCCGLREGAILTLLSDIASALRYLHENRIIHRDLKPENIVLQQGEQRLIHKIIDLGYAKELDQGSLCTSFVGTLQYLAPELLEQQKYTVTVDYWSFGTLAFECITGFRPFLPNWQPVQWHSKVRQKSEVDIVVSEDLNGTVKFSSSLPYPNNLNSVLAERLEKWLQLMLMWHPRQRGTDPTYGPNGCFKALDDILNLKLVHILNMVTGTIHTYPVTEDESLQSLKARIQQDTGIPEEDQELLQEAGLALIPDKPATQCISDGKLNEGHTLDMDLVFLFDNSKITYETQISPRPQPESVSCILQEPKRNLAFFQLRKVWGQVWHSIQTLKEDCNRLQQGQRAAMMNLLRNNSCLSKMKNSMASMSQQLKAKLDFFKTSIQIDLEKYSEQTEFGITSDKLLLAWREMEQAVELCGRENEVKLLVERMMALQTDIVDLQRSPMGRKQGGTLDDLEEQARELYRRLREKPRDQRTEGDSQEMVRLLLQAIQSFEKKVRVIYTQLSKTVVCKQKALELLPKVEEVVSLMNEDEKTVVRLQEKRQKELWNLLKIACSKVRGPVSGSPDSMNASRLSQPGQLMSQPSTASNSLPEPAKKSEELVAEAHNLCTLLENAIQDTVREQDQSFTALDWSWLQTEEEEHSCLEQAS
# Assay procedure: Inhibition of IKKbeta (unknown origin) at 10 uM by TR-FRET assay
Listed next: entries and their corresponding inhibition.
The reply should be a number in %, with the unit left off.

Below, each entry is followed by its recorded inhibition result.
[[record]]
structure_smiles = "CN1CCN(CCCOc2ccc(N3C(=O)/C(=C/c4ccc(Oc5ccc(Cl)cc5)cc4)SC3=S)cc2)CC1"
readout_label = "inhibition"
recorded_result = 88.7

[[record]]
structure_smiles = "CN1CCN(CCCOc2ccc(N3C(=O)/C(=C/c4ccc(Oc5ccc(F)cc5)cc4)SC3=S)cc2)CC1"
readout_label = "inhibition"
recorded_result = 93.3

[[record]]
structure_smiles = "Cc1ccc(Oc2ccc(/C=C3\\SC(=S)N(c4ccc(OCCCN5CCN(C)CC5)cc4)C3=O)cc2)cc1"
readout_label = "inhibition"
recorded_result = 67


Exam item: Lookup: inhibition / Inhibitor of nuclear factor kappa-B kinase subunit beta (Homo sapiens) (UniProt O14920) / "CN1CCN(CCCOc2ccc(N3C(=O)/C(=C/c4ccc(Oc5ccc([N+](=O)[O-])cc5)cc4)SC3=S)cc2)CC1"
Marked response: 89.4
